Test system: ragweed (common ragweed, Ambrosia elatior)
Assay: Test A preemergence
Assay type: in vivo
Details: Ambrosia artemisiifolia, pre-emergence, 240 h, 125 g ai/ha, preemergence; visual rating after approx. 10 d; 0 to 100 scale where 0 is no effect and 100 is complete control; read-out: Plant response rating, Ragweed
readout_label: pest or weed control at 125 g/ha (%)
Give bare numbers, in %.

Below, each entry is followed by its recorded pest or weed control at 125 g/ha result.
record_smiles: CN1C[C@H](c2nccs2)[C@@H](C(=O)Nc2ccccc2F)C1=O
quantitative_readout: 0
//
record_smiles: CN1C[C@H](c2cccc(C3CC3)c2)[C@@H](C(=O)Nc2ccccc2F)C1=O
quantitative_readout: 0
//
record_smiles: COc1ccc([C@H]2CNC(=O)[C@@H]2C(=O)Nc2ccccc2S(C)(=O)=O)cc1F
quantitative_readout: 0
//
record_smiles: Cc1ccc(NC(=O)[C@H]2C(=O)N(C)C[C@@H]2c2cc(F)cc(F)c2)c(F)c1
quantitative_readout: 0
//
record_smiles: Cc1ccc([C@H]2CN(C)C(=O)[C@@H]2C(=O)Nc2cccc(F)c2F)c(F)c1
quantitative_readout: 50

Look at each compound and report its pest or weed control at 125 g/ha.
1. CN1C[C@H](c2nccs2)[C@@H](C(=O)Nc2cccc(F)c2F)C1=O
2. CN1C[C@H](c2ccc(OC(F)F)cc2)[C@@H](C(=O)Nc2ccccc2S(C)(=O)=O)C1=O

Result:
0
80
